Values from the supplement of paper PMC8728848

Recorded measurements of glycan array binding signal (z-score), one per entry
Target: GlcNAc(b1-2)[GlcNAc(b1-6)]Man(a1-6)[GlcNAc(b1-4)][GlcNAc(b1-2)Man(a1-3)]Man(b1-4)GlcNAc(b1-4)GlcNAc
Assay: glycan array binding signal (z-score within array); higher = stronger binding
Conditions: glycan notation: IUPAC condensed, linker removed
The sample as a whole holds a higher share of the strongest signals than the screen did.
ATTRIBUTE_MEASURED: glycan array binding signal (z-score)

1. pTFF2 (Sus scrofa), P01359 (protein) KPAACRCSRQDPKNRVNCGFPGITSDQCFTSGCCFDSQVPGVPWCFKPLPAQESEECVMEVSARKNCGYPGISPEDCAARNCCFSDTIPEVPWCFFPMSVEACHY :: 0.104
2. Mermaid3 (Stilbonema majum) (protein) MGSSHHHHHHSSGLVPRGSHMAASGWLRSPQGTVVKLYRRSLSWSKADEFCKDVDGRLVVDRTADMHLFLIKNVLKEKKSRVWVGLRRTASHSRTWIWSDGTRQNEGDLDANLWLRDEPNDAAGEEECALFMYSPWEKAWGLNDYLCRGGCRNYQFICEKWIR :: -0.397
3. cFel (Cyprinus carpio), P68512 (protein) LDCTVIDGNLKQIDAGSGSVVGVNNLNETFVLIDNVFTKISGSLKHFSVGPAGQLGVNTANNIFKYQSGGFVQLAGLLKQVDAGGDQIIAGVNMYDDIYCLNMDANNKWPSSNTPWVQINGKLKYYSCGPYSCWGVNSNDQIFIMKDVSSNVCSGSGSFINIPGLLSMIEVATDGSVFGVNSQGNLYQRTGVTRSKPDGTDWISMVACPNGHKHVSFDLGVLWLVCVDGSIRKCILTD :: -0.817
4. FGF1 (Homo sapiens), P05230 (protein) MAEGEITTFTALTEKFNLPPGNYKKPKLLYSNGGHFLRILPDGTVDGTRDRSDQHIQLQLSAESVGEVYIKSTETGQYLAMTDGLLYGSQTPNEECLFLERLEENHYNTYISKHAEKNWFVGLKKNGSCKRGPRTHYGQAILFLPLPASSED :: -0.832
5. SynCAM (Mus musculus) (protein) MASAVLPSGSQCAAAAAVAAAAAPPGLRLRLLLLLLSAAALIPTGDGQNLFTKDVTVIEGEVATISCQVNKSDDSVIQLLNPNRQTIYFRDFRPLKDSRFQLLNFSSSELKVSLTNVSISDEGRYFCQLYTDPPQESYTTITVLVPPRNLMIDIQKDTAVEGEEIEVNCTAMASKPATTIRWFKGNKELKGKSEVEEWSDMYTVTSQLMLKVHKEDDGVPVICQVEHPAVTGNLQTQRYLEVQYKPQVHIQMTYPLQGLTREGDAFELTCEAIGKPQPVMVTWVRVDDEMPQHAVLSGPNLFINNLNKTDNGTYRCEASNIVGKAHSDYMLYVYDPPTTIPPP :: -0.782
6. AT1G73650(15) (Arabidopsis thaliana), F4HRY1 (protein) MGTVLDSHFLALTAIVTVIYQFIFFVITALFKFDQVTDFAGSTNFVILAVLTLVLKASWHFRQIVLTLLVVVWGLRLGIFLLMETRILQWGEDRRFDEQRGNIVRLIIFWTLQAVWVWTVSLPLTLVNASDGGGSLKPADVIGWTMETWVFGFLIEAAADQQKLSFKNSPENRGKWCDVGVWKYSRHPNYFGEMETLLWWGIFVAASPVLEGAEYLVIFGPLFLTLLLLFVSGIPLLEASADKKHGNSGAYRSYKKTTSPLILFPRGVYGNLPGWFKTVFLFEFPFYSRNLPQEGRLQNSKEKEVKDD :: -0.322
7. VLRB.aGPA.23-GCN4-biotin (Petromyzon marinus) (protein) ACPSQCSCSGTEVNCAGKSLASVPAGIPTTTRVLYLNSNQITKLEPGVFDRLANLRELHLWGNQLVSLPPGVFDNLANLEKLWLNSNQLTSLPAGLFDRLVNLEHLGLCCMKLTELPSGAFDKLTRLKQLGLDQNQLKSIPDGAFARLPSLTHVWLHTNPWDCQCTDILYLSGWVAQHSSIVGEGWPWRHSPDSAKCSGTNTPVRAVTEASTSPSKCP :: -0.085
